Test: soluble on expression in E. coli; label from the status in PepcDB or PDB records
recordedMetric: soluble on expression in E. coli

MTVGLGMPQPPAPTLAPRRATRQLMVGNVGVGSDHPVSVQSMCTTKTHDVNSTLQQIAELTAAGCDIVRVACPRQEDADALAEIARHSQIPVVADIHFQPRYIFAAIDAGCAAVRVNPGNIKEFDGRVGEVAKAAGAAGIPIRIGVNAGSLDKRFMEKYGKATPEALVESALWEASLFEEHGFGDIKISVKHNDPVVMVAAYELLAARCDYPLHLGVTEAGPAFQGTIKSAVAFGALLSRGIGDTIRVSLSAPPVEEVKVGNQVLESLNLRPRSLEIVSCPSCGRAQVDVYTLANEVTAGLDGLDVPLRVAVMGCVVNGPGEAREADLGVASGNGKGQIFVRGEVIKTVPEAQIVETLIEEAMRLAAEMGEQDPGATPSGSPIVTVS ... soluble
MGLDKGKQQTAKKPGFNCKPFEFEISSTKFQIPNDKPLKYTLKCTADEKQDVIIQVHSVFFEIVGARRKHGVTSQEFHVLGKNEEMTFEIGLKDLTNVSYDNFEHAQLASAAGFITFTHYKSSRDDDSDASWGPNKNLLIVITDGMEEVGFWKKKLSVETETDEMKKVKEEFGVKLEGEKKYEEIDKMEMDRMRKEIGKNQSARDDGFAPIKDMHKKYLKEKYECVIS ... soluble
MSLKALVLTGTKQFEMQDVTTPTVKDDEVLVNTAYAGICGTDRALYAGLPGSADAVPPIVLGHENSGIVAAIGRNVTNVKVGDRVTVDPNIYCGECEYCRTDRPELCDNLSAVGVTRDGGLEESFTAPASVVYPIPDSVSLKAAATVEPISCAVHGVKLLDLTPYQKALVIGDGFMGQLFVQLLQAYGVHQVDFAGIVDEKLAFNKEKFGVTNTYNTTRDSIPADYDVVIEAVGLPQTQEQAVEATKKGAQVLMFGVGKPNQTFSMNTYEVYQKQLKIQGAFINPYAFEDSIALLASGQLDVESLISHEVSLEQVEDVLNGKVEHVSKAVVKVSEGHHHHHH ... soluble
DPTQSVRAYYIQNGDSTKTVIIGQGWTEHVDWIGYVSKIWYDMGYNVLMPSQRGQFLSDGDNLTFGYQDKYDWLNWVKMVDERNGADSQVVFYGQSLGADTVLEAASVPGLSKSVKAVVSDAGYATLPELGSSLYNKAITAVSNALQSIGLPAITSLPFLSYDKIVAAMNARLIKEQGFSVDDLSATDAASKITIPLLLIHTQDDAFIPYTQSLELAAANHSANQEVWILPGTVGGHAAANNAILQYRQHLLAFLTPLLSVADAED ... not soluble
MANRLRTGIDVLDRKLDGGIPAGSIVVLSAQPASQAELFLYELTATRGTLWLSLDRTAESVIASIEQTPANTGDPTVRHISGEAPLDNAGKLVSALPETSNLIVDPLDVLEAQEPHSRFRAFMNDLQNHIVNTGSLAIVHCLDGRDVPPLRDTTEHFADVVFQLNTTTNGDEVENRLAIPKFRGGRAPTDIIKLNLVEEVSIDTSRDIALEHHHHHH ... not soluble
